Test system: ESBL E. cloacae
Format: cell-based, Enterobacter cloacae
Residues, ends and D or L forms follow the SMILES beside them.
Exercise: for every item that follows, state its recorded MIC.
Answers are plain numbers, in µM.

Sample records with MIC:
CC[C@H](C)[C@H](NC(=O)[C@H](Cc1c[nH]c2ccccc12)NC(=O)[C@H](Cc1c[nH]c2ccccc12)NC(=O)[C@H](CCCCN)NC(=O)[C@H](CC(C)C)NC(=O)[C@H](CCCNC(=N)N)NC(=O)[C@H](CCCCN)NC(=O)[C@@H](N)CCCNC(=N)N)C(=O)N[C@@H](Cc1ccc(O)cc1)C(N)=O [HHC66, RKRLKWWIY] (H-RKRLKWWIY-NH2; N-terminus assumed)
13
CC[C@H](C)[C@H](NC(=O)[C@H](CCCCN)NC(=O)[C@H](Cc1c[nH]c2ccccc12)NC(=O)[C@@H](N)CCCCN)C(=O)N[C@@H](Cc1ccccc1)C(=O)N[C@@H](CCCNC(=N)N)C(=O)N[C@@H](CCCNC(=N)N)C(=O)N[C@@H](Cc1c[nH]c2ccccc12)C(=O)N[C@@H](Cc1c[nH]c2ccccc12)C(N)=O [HHC71, KWKIFRRWW] (H-KWKIFRRWW-NH2; N-terminus assumed)
6
CC[C@H](C)[C@H](NC(=O)[C@H](CCCNC(=N)N)NC(=O)[C@H](CCCCN)NC(=O)[C@@H](NC(=O)[C@H](Cc1c[nH]c2ccccc12)NC(=O)[C@H](Cc1c[nH]c2ccccc12)NC(=O)[C@H](Cc1c[nH]c2ccccc12)NC(=O)[C@H](CCCNC(=N)N)NC(=O)[C@@H](N)CC(C)C)[C@@H](C)CC)C(N)=O [HHC57, LRWWWIKRI] (H-LRWWWIKRI-NH2; N-terminus assumed)
50

Now take the following compound into account.
Could you share what MIC was measured for CC[C@H](C)[C@H](NC(=O)[C@H](Cc1c[nH]c2ccccc12)NC(=O)[C@H](CCCCN)NC(=O)[C@@H](N)CCCNC(=N)N)C(=O)N[C@@H](Cc1c[nH]c2ccccc12)C(=O)N[C@@H](CCCNC(=N)N)C(=O)N[C@@H](Cc1c[nH]c2ccccc12)C(=O)N[C@@H](Cc1ccccc1)C(=O)N[C@@H](CC(C)C)C(N)=O [HHC75, RKWIWRWFL] (H-RKWIWRWFL-NH2; N-terminus assumed) , tested on ESBL E. cloacae?
3

* * *

Test system: MCP-1 release by human PBMC
Test: Chemokine induction in PBMC (capture ELISA)
Format: cell-based
Settings: 20 μg/ml peptide, background (204) subtracted
Parameter Measured: Chemokine induction MCP-1 (pg/mL)
Give bare numbers, in pg/mL.

1027 (KKQVSRVKVWRK) [compound 1027]
54
1007 (WNRVKWIRR) [compound 1007]
103
1021 (VRLRIRVAV) [compound 1021]
158
1023 (IRVWVLRQR) [compound 1023]
250

Below are some substances; for each one, tell me its Chemokine induction MCP-1.
1. 1029 (KQFRIRVRV) [compound 1029]
2. 1011 (RRWVVWRIVQRR) [compound 1011]

1. 296
2. 579

Below are some substances; for each one, tell me its Chemokine induction MCP-1.
1. 1046 (WIRVIRW) [compound 1046]
2. 1009 (AIRVVRARLVRR) [compound 1009]
3. 1003 (IVWKIKRWWVGR) [compound 1003]
4. 1036 (VQFRIRVIVIRK) [compound 1036]
5. 1008 (RIKWIVRFR) [compound 1008]
6. 1004 (RFWKVRVKYIRF) [compound 1004]
7. 1034 (KQFRNRLRIVKK) [compound 1034]
8. 1039 (IWVIRRVWR) [compound 1039]

46
634
31
601
633
300
434
603

Below are some substances; for each one, tell me its Chemokine induction MCP-1.
1. 1038 (IVVRRVIRK) [compound 1038]
2. 1019 (IVVWRRQLVKNK) [compound 1019]
3. 1048 (IRWVIRW) [compound 1048]
4. 1025 (RRIVKKFQIVRR) [compound 1025]

1: 25; 2: 27; 3: 96; 4: 109

* * *

Exercise: for every item that follows, state its recorded Chemokine induction MCP-3.
Tested on: MCP-3 release by human PBMC
Test: Chemokine induction in PBMC (capture ELISA)
Assay type: cell-based
Settings: 20 μg/ml peptide, background (6) subtracted
Protocol: FIG. 16. Induction of MCP3 release by 7.5×10^5 human PBMC in response to treatment with 20 or 100 μg/ml of different peptides for 24 hours. Venous blood (20 ml) from healthy volunteers was collected in Vacutainer® collection tubes containing sodium heparin as an anticoagulant (Becton Dickinson, Mississauga, ON) in accordance with UBC ethical approval and guidelines. […]
Residues, ends and D or L forms follow the SMILES beside them.
Give bare numbers, in pg/mL.

Sample records with Chemokine induction MCP-3:
CC[C@H](C)[C@H](NC(=O)[C@H](CCCNC(=N)N)NC(=O)[C@H](CCCCN)NC(=O)[C@@H](NC(=O)[C@H](Cc1c[nH]c2ccccc12)NC(=O)[C@H](Cc1c[nH]c2ccccc12)NC(=O)[C@H](Cc1c[nH]c2ccccc12)NC(=O)[C@H](CCCNC(=N)N)NC(=O)[C@@H](N)CC(C)C)[C@@H](C)CC)C(N)=O [HHC57, LRWWWIKRI] (H-LRWWWIKRI-NH2; N-terminus assumed)
0
CC[C@H](C)[C@H](NC(=O)[C@H](CCCNC(=N)N)NC(=O)[C@@H](N)CCCCN)C(=O)N[C@@H](CCSC)C(=O)N[C@@H](CCCCN)C(=O)N[C@@H](CC(C)C)C(=O)N[C@@H](CCCCN)C(=O)N[C@@H](CCSC)C(=O)N[C@@H](CCCNC(=N)N)C(N)=O [HHC133, KRIMKLKMR] (H-KRIMKLKMR-NH2; N-terminus assumed)
0
CC[C@H](C)[C@H](NC(=O)[C@H](CCCCN)NC(=O)[C@H](CC(C)C)NC(=O)[C@@H](NC(=O)[C@@H](N)C(C)C)C(C)C)C(=O)N[C@H](C(=O)N[C@@H](CCCNC(=N)N)C(=O)N[C@@H](CCCNC(=N)N)C(=O)N[C@@H](Cc1ccccc1)C(N)=O)C(C)C [HHC148, VVLKIVRRF] (H-VVLKIVRRF-NH2; N-terminus assumed)
1

Now take the following compound into account.
Can you look up the measured Chemokine induction MCP-3 of CC[C@H](C)[C@H](NC(=O)[C@H](CCCNC(=N)N)NC(=O)[C@H](C)NC(=O)[C@H](CC(C)C)NC(=O)[C@@H](N)CCCNC(=N)N)C(=O)N[C@H](C(=O)N[C@H](C(=O)N[C@H](C(=O)N[C@@H](CCCNC(=N)N)C(=O)N[C@H](C(=O)N[C@@H](C)C(=O)N[C@@H](CCCNC(=N)N)C(N)=O)C(C)C)[C@@H](C)CC)C(C)C)C(C)C [Bac2A, RLARIVVIRVAR-NH2, reference compound] (H-RLARIVVIRVAR-NH2; N-terminus assumed) for me?
2

* * *

Exercise: for every item that follows, state its recorded MIC.
Test system: Enterococcus faecalis ATCC29212
Assay type: cell-based
Settings: ATCC29212
Description: Minimal inhibitory concentration (MIC) determination. The MIC of the peptides were measured using a modified broth microdilution method in Mueller Hinton (MH) medium (Wu M, Hancock R E W. 1999. Interaction of the cyclic antimicrobial cationic peptide bactenecin with the outer and cytoplasmic membrane. J Biol Chem 274, 29-35). Briefly, the peptides were dissolved and stored in glass vials. The assay was performed in sterile 96-well polypropylene microtitre plates were used. […]
Residues, ends and D or L forms follow the SMILES beside them.

CC[C@H](C)[C@H](NC(=O)[C@H](CCCCN)NC(=O)[C@H](Cc1c[nH]c2ccccc12)NC(=O)[C@@H](N)CCCCN)C(=O)N[C@@H](Cc1ccccc1)C(=O)N[C@@H](CCCNC(=N)N)C(=O)N[C@@H](CCCNC(=N)N)C(=O)N[C@@H](Cc1c[nH]c2ccccc12)C(=O)N[C@@H](Cc1c[nH]c2ccccc12)C(N)=O [HHC71, KWKIFRRWW] (H-KWKIFRRWW-NH2; N-terminus assumed)
24 µM
CC[C@H](C)[C@H](NC(=O)[C@H](CCCNC(=N)N)NC(=O)[C@H](CCCCN)NC(=O)[C@@H](NC(=O)[C@H](Cc1c[nH]c2ccccc12)NC(=O)[C@H](Cc1c[nH]c2ccccc12)NC(=O)[C@H](Cc1c[nH]c2ccccc12)NC(=O)[C@H](CCCNC(=N)N)NC(=O)[C@@H](N)CC(C)C)[C@@H](C)CC)C(N)=O [HHC57, LRWWWIKRI] (H-LRWWWIKRI-NH2; N-terminus assumed)
13 µM
CC[C@H](C)[C@H](NC(=O)[C@H](CCCCN)NC(=O)[C@H](Cc1c[nH]c2ccccc12)NC(=O)[C@H](Cc1c[nH]c2ccccc12)NC(=O)[C@H](CCCNC(=N)N)NC(=O)[C@@H](N)Cc1c[nH]c2ccccc12)C(=O)N[C@@H](Cc1c[nH]c2ccccc12)C(=O)N[C@@H](CCCCN)C(=O)N[C@@H](CCCNC(=N)N)C(N)=O [HHC20, WRWWKIWKR] (H-WRWWKIWKR-NH2; N-terminus assumed)
24 µM
N=C(N)NCCC[C@H](NC(=O)[C@H](CCCNC(=N)N)NC(=O)[C@@H](N)Cc1ccccc1)C(=O)N[C@@H](Cc1c[nH]c2ccccc12)C(=O)N[C@@H](Cc1c[nH]c2ccccc12)C(=O)N[C@@H](CCCCN)C(=O)N[C@@H](Cc1c[nH]c2ccccc12)C(=O)N[C@@H](Cc1ccccc1)C(=O)N[C@@H](CCCCN)C(N)=O [HHC53, FRRWWKWFK] (H-FRRWWKWFK-NH2; N-terminus assumed)
24 µM

Now take the following compound into account.
Can you look up the measured MIC of CC[C@H](C)[C@H](NC(=O)[C@H](CCCNC(=N)N)NC(=O)[C@@H](N)CCCCN)C(=O)N[C@@H](CCSC)C(=O)N[C@@H](CCCCN)C(=O)N[C@@H](CC(C)C)C(=O)N[C@@H](CCCCN)C(=O)N[C@@H](CCSC)C(=O)N[C@@H](CCCNC(=N)N)C(N)=O [HHC133, KRIMKLKMR] (H-KRIMKLKMR-NH2; N-terminus assumed) for me?
>226 µM
